# Tested on: lipase
# assay.procedure: Lipase activity retention in detergent use solution (4000 ppm, 5 GPG water; p-nitrophenyl valerate, TRIS buffer pH 8.0)
# Type: biochemical
# reported.conditions: base formula, phosphonate at 0.1% elemental phosphorus, at 120º F. or at room temperature (as titled), time 180 min
Would you mind telling me the reported Relative Lipase Enzyme Activity of each entry?
Number plus unit, in that order.

q: Assign Relative Lipase Enzyme Activity to the following record: O=C(O)CCC(CC(=O)O)(C(=O)O)P(=O)(O)O (stereo not shown)
a: 10.01%

q: Assign Relative Lipase Enzyme Activity to the following record: CC(O)(P(=O)(O)O)P(=O)(O)O
a: 9.12%

q: Assign Relative Lipase Enzyme Activity to the following record: NCP(=O)(O)O
a: 16.98%

q: Assign Relative Lipase Enzyme Activity to the following record: O=P(O)(O)CN(CP(=O)(O)O)CP(=O)(O)O
a: 15.43%

---

# Test system: amylase
# assay.procedure: Amylase activity retention in detergent use solution (4000 ppm, 5 GPG water; ethylidene substrate EPS, HEPES buffer pH 8.0)
# Assay type: biochemical
# reported.conditions: base formula, phosphonate at 0.1% elemental phosphorus level, use solution at 120º F., time 240 min
outcome.measure: Relative Amylase Enzyme Activity

q: Assign Relative Amylase Enzyme Activity to the following record: CC(O)(P(=O)(O)O)P(=O)(O)O [HEDP]
a: 81.23%

q: Assign Relative Amylase Enzyme Activity to the following record: O=P(O)(O)CN(CP(=O)(O)O)CP(=O)(O)O [ATMP, Aminotri (methylene phosphonic acid)]
a: 107.10%

q: Assign Relative Amylase Enzyme Activity to the following record: O=C(O)CCC(CC(=O)O)(C(=O)O)P(=O)(O)O (stereo not shown) [PBTC, Phosphonebutane tricarboxylic acid]
a: 91.39%

q: Assign Relative Amylase Enzyme Activity to the following record: NCP(=O)(O)O [AMPA, Aminomethyl phosphonic acid]
a: 99.25%

---

# Test system: amylase
# assay.procedure: Amylase activity retention in detergent use solution (4000 ppm, 5 GPG water; ethylidene substrate EPS, HEPES buffer pH 8.0)
# Assay type: biochemical
# reported.conditions: base formula, phosphonate 0.3 wt-%, use solution at 120° F., time 210 min
Would you mind telling me the reported Relative Amylase Enzyme Activity of each entry?

q: Assign Relative Amylase Enzyme Activity to the following record: O=C(O)CCC(CC(=O)O)(C(=O)O)P(=O)(O)O (stereo not shown) [PBTC, Phosphonebutane tricarboxylic acid]
a: 81.99%

q: Assign Relative Amylase Enzyme Activity to the following record: NCP(=O)(O)O [AMPA, Aminomethyl phosphonic acid]
a: 103.78%

q: Assign Relative Amylase Enzyme Activity to the following record: CC(O)(P(=O)(O)O)P(=O)(O)O [HEDP]
a: 69.49%

q: Assign Relative Amylase Enzyme Activity to the following record: O=P(O)(O)CN(CP(=O)(O)O)CP(=O)(O)O [ATMP, Aminotri (methylene phosphonic acid)]
a: 94.61%

---

# Tested on: amylase
# assay.procedure: Amylase activity retention in detergent use solution (4000 ppm, 5 GPG water; ethylidene substrate EPS, HEPES buffer pH 8.0)
# Assay type: biochemical
# reported.conditions: base formula, phosphonate 0.3 wt-%, use solution at 120° F., time 60 min
Would you mind telling me the reported Relative Amylase Enzyme Activity of each entry?
State the answer as a number, implicitly in %.

q: Assign Relative Amylase Enzyme Activity to the following record: O=C(O)CCC(CC(=O)O)(C(=O)O)P(=O)(O)O (stereo not shown) [PBTC, Phosphonebutane tricarboxylic acid]
a: 86.51

q: Assign Relative Amylase Enzyme Activity to the following record: NCP(=O)(O)O [AMPA, Aminomethyl phosphonic acid]
a: 80.10

q: Assign Relative Amylase Enzyme Activity to the following record: O=P(O)(O)CN(CP(=O)(O)O)CP(=O)(O)O [ATMP, Aminotri (methylene phosphonic acid)]
a: 89.94

q: Assign Relative Amylase Enzyme Activity to the following record: CC(O)(P(=O)(O)O)P(=O)(O)O [HEDP]
a: 72.27

---

Would you mind telling me the reported Relative Protease Enzyme Activity of each entry?
# System: protease
# assay.procedure: Protease activity retention in detergent use solution (4000 ppm, 5 GPG water; peptidyl substrate, glycine buffer pH 9.0)
# Assay type: biochemical
# reported.conditions: base formula, phosphonate at 0.1% elemental phosphorus, use solution at 120° F., time 210 min

q: Assign Relative Protease Enzyme Activity to the following record: O=P(O)(O)CN(CP(=O)(O)O)CP(=O)(O)O [ATMP, Aminotri (methylene phosphonic acid)]
a: 90.51%

q: Assign Relative Protease Enzyme Activity to the following record: O=C(O)CCC(CC(=O)O)(C(=O)O)P(=O)(O)O (stereo not shown) [PBTC, Phosphonebutane tricarboxylic acid]
a: 0.73%

q: Assign Relative Protease Enzyme Activity to the following record: CC(O)(P(=O)(O)O)P(=O)(O)O [HEDP]
a: 0.64%

q: Assign Relative Protease Enzyme Activity to the following record: NCP(=O)(O)O [AMPA, Aminomethyl phosphonic acid]
a: 32.27%

---

Would you mind telling me the reported Relative Amylase Enzyme Activity of each entry?
# System: amylase
# assay.procedure: Amylase activity retention in detergent use solution (4000 ppm, 5 GPG water; ethylidene substrate EPS, HEPES buffer pH 8.0)
# Format: biochemical
# reported.conditions: base formula, phosphonate 0.6 wt-%, use solution at 120º F., time 40 min
State the answer as a number, implicitly in %.

q: Assign Relative Amylase Enzyme Activity to the following record: O=P(O)(O)CN(CP(=O)(O)O)CP(=O)(O)O
a: 77.64

q: Assign Relative Amylase Enzyme Activity to the following record: O=C(O)CCC(CC(=O)O)(C(=O)O)P(=O)(O)O (stereo not shown)
a: 73.11

q: Assign Relative Amylase Enzyme Activity to the following record: NCP(=O)(O)O
a: 94.06

q: Assign Relative Amylase Enzyme Activity to the following record: CC(O)(P(=O)(O)O)P(=O)(O)O
a: 94.89
